All values here come from ChEMBL document CHEMBL4219066.

- ASSAY OVERVIEW: In vivo drug level in human urine treated with LY3031207 by HPLC-MS analysis
- Format: ADME, organism-based
REPORTED METRIC: Drug metabolism

Sample answers from the record:
COMPOUND	TEST VALUE
CC(C)(CO)C(=O)NCc1ccc(Cl)c(C(=O)NC(=N)N)c1	Metabolite_Detected
CC(C)(C)C(=O)NCc1ccc(Cl)c(C(=O)NC(=N)N)c1	Metabolite_Detected
CC(C)(C)C(=O)NCc1ccc(Cl)c(C(=O)Nc2nc(O)c[nH]2)c1	Metabolite_Detected
CC(C)(C)C(=O)NCc1ccc(Cl)c(C(=O)NC2=NC(O)C(O)N2)c1 (stereo not given)	Metabolite_Detected

We now examine a further compound.
[ask] What does the data say about its Drug metabolism? Entry: CC(C)(CO)C(=O)NCc1ccc(Cl)c(C(=O)Nc2ncc[nH]2)c1
[reply] Metabolite_Detected
